assay: amyloid nucleation score (Sup35N fusion, yeast selection) (log enrichment); library NNK1; higher = more nucleation; inactive = no reads after selection;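 also: zero at mode of non-aggregating sequences after 7 days selection at 30°C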
value_kind: amyloid nucleation score
Numbers only.

Reference set (6 entries):
INSERT INTO assay_data (substance, value_kind, measured_number) VALUES
  ('FLRCRFLYQQ', 'amyloid nucleation score', 0.4),
  ('QIAVWPSYFSGDIGDMSRKG', 'amyloid nucleation score', 0.017),
  ('APMNVLEVTFSYSADLTVVV', 'amyloid nucleation score', 0.167),
  ('WDHQNMNLYYIKYGMVMNQS', 'amyloid nucleation score', 3.17),
  ('GSFLRGPHPKNY', 'amyloid nucleation score', 0.853),
  ('SMYVPCRFSTDSTMLPNELK', 'amyloid nucleation score', -0.19);

// for each substance in input: emit amyloid nucleation score
1. SQVMSRLLGKFKLY
2. VDVCCDGYRYLW
3. VLSFDLVTVVGNKFLVWIKR
4. TSQVSGRHVVSIDWTIWLSL
5. EAPGTKFCC
6. HLRFYAYRGMGRPNFFLCFE

Reply:
-0.609
-0.754
0.276
0.616
2.94
0.183
